# system name: RXRα (Homo sapiens)
# Sequence (P19793 227-458 limits assumed): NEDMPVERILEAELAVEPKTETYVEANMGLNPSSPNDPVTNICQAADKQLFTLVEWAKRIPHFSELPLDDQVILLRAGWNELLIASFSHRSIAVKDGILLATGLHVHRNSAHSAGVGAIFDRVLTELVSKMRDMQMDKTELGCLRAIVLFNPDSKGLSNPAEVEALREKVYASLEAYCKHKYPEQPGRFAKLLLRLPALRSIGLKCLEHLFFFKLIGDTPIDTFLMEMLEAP
# experiment: Fluorescence polarization
# Type: biochemical
# condition details: potency range in FP assay
pEC50: −log10 of the molar value.
Please respond with reported pEC50 for every item in the list.

Input Cc1c(-c2ccccc2)cccc1-c1cc(/C=C/C(=O)O)ccc1O [ligand 6] , output reported pEC50.
5.00 to 6.00

Input Cc1ccc(-c2ccccc2)cc1-c1cc(/C=C/C(=O)O)ccc1O [ligand 7] , output reported pEC50.
5.00 to 6.00
